# MEASURED_TARGET: UA-21 telomerase (Cricetulus griseus, UniProt A0A9J7FFE8)
# Construct: non-processive telomerase activity in the S100 extracts of HeLa-S3, UA-21 and WI38 cell lines; endogenous in cells
# Sequence (A0A9J7FFE8 1-1129): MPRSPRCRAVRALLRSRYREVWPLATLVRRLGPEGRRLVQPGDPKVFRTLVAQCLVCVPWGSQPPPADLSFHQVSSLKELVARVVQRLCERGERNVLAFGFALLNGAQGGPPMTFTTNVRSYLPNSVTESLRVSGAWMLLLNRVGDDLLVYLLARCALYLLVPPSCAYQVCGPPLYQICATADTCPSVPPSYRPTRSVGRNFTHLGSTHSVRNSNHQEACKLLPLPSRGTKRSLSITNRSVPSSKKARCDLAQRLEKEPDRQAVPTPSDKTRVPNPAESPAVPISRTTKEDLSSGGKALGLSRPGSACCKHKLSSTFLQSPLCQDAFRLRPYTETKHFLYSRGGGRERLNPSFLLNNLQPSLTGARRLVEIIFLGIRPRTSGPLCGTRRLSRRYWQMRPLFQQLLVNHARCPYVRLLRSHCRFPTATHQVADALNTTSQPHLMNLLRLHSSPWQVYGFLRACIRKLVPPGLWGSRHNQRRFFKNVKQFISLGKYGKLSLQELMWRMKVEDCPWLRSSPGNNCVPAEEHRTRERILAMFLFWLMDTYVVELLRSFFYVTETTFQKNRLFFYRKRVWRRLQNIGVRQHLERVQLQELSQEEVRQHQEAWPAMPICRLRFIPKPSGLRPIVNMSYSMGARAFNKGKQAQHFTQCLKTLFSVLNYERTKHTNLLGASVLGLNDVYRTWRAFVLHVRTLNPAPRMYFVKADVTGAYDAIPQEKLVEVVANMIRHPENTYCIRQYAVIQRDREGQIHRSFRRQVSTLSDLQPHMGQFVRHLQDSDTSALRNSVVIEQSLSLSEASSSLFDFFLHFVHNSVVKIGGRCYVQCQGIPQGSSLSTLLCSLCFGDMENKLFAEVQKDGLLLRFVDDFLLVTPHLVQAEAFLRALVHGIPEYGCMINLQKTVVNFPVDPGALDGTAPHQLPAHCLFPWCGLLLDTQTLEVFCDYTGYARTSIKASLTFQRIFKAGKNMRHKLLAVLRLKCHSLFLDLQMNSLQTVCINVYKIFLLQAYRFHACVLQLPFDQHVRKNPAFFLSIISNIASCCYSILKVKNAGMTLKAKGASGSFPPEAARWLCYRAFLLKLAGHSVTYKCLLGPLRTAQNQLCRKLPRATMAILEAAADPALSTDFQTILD
# ASSAY_REMARKS: Telomerase assay with CHO non-processive telomerase
# CONDITION_SUMMARY: UA-21 telomerase; estimated from densitometry; read-out: concentration required to inhibit the telomerase activity by 50% of the control
VALUE_KIND: IC50

Exercise: Find the recorded IC50 belonging to Cc1cn([C@H]2C[C@H](N=[N+]=[N-])[C@@H](CO[P@](=O)(O)O[P@](=O)(O)OP(=O)(O)O)O2)c(=O)[nH]c1=O [NA010] and report it.
Key: ~750 µM

----------
Below, each of the compounds is paired with its reported remaining activity at 2000 µM value.
# MEASURED_TARGET: human 293 cell telomerase (Homo sapiens)
# Construct: with 20 μl of S100 enzyme extract; endogenous in cells; host or cells: 293 cells (transformed human embryonic kidney), S100 extract
# ASSAY_REMARKS: Conventional telomerase assay (32P-dGTP as radiolabel substrate)
# Assay type: biochemical
# CONDITION_SUMMARY: 2.0 mM; read-out: % of Control
Quick reminder: number only, in %, skip the unit.

// known answers, use as guide
>  <COMPOUND>
Nc1nc2c(ncn2[C@H]2C[C@H](O)[C@@H](COP(=O)(O)OP(=O)(O)CP(=O)(O)O)O2)c(=O)[nH]1 [NA014]

>  <VALUE_KIND>
remaining activity at 2000 µM

>  <VALUE>
28

$$$$
>  <COMPOUND>
Nc1ncnc2c1ncn2[C@H]1C[C@H](O)[C@@H](COP(O)(=S)OP(=O)(O)OP(=O)(O)O)O1 (stereo partly shown) [NA006]

>  <VALUE_KIND>
remaining activity at 2000 µM

>  <VALUE>
113

$$$$
>  <COMPOUND>
Nc1nc2c(ncn2[C@H]2C[C@H](O)[C@@H](COP(O)(=S)OP(=O)(O)OP(=O)(O)O)O2)c(=O)[nH]1 (stereo partly shown) [NA013]

>  <VALUE_KIND>
remaining activity at 2000 µM

>  <VALUE>
0

$$$$

For the next question, use this compound.
Exercise: Item Nc1ncnc2c1ncn2[C@H]1CC[C@@H](COP(=O)(O)OP(=O)(O)OP(=O)(O)O)O1 [NA007, 2′,3′-Dideoxyadenosine-5′-Triphosphate] has what recorded remaining activity at 2000 µM?
Key: 133

----------
# MEASURED_TARGET: human 293 cell telomerase (Homo sapiens, UniProt O14746)
# Construct: with 20 μl of S100 enzyme extract; endogenous in cells; host or cells: 293 cells (transformed human embryonic kidney), S100 extract
# Sequence (O14746 whole entry): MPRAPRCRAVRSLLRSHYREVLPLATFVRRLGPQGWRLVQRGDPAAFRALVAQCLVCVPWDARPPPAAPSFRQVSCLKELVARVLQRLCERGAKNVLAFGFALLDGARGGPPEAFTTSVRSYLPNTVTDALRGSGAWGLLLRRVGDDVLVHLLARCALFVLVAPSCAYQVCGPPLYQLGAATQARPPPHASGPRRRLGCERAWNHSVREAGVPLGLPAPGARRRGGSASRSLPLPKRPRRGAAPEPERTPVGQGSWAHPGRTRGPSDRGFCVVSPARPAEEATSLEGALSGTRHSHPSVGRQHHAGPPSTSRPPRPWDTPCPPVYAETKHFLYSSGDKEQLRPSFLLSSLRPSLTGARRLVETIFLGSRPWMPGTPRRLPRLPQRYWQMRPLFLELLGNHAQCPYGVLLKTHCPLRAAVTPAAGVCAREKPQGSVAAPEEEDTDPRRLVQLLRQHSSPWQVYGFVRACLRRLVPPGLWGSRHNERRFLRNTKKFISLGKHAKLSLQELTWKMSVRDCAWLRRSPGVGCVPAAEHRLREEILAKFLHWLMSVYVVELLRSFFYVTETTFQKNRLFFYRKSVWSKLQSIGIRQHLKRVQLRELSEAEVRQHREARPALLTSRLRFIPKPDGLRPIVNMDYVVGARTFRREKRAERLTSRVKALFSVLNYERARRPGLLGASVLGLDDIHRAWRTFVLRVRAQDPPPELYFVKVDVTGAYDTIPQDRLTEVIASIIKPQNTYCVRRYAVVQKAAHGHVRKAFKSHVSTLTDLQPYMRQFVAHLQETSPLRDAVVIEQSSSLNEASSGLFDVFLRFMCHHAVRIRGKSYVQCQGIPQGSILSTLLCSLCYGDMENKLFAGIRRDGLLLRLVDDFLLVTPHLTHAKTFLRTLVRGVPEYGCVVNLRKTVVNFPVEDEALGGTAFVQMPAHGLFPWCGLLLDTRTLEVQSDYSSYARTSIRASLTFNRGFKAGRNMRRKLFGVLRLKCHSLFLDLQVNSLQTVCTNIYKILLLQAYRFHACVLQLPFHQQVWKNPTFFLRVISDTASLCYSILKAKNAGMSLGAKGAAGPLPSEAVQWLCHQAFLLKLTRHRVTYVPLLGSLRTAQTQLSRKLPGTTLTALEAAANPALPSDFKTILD
# Sequence (O60832 whole entry partner): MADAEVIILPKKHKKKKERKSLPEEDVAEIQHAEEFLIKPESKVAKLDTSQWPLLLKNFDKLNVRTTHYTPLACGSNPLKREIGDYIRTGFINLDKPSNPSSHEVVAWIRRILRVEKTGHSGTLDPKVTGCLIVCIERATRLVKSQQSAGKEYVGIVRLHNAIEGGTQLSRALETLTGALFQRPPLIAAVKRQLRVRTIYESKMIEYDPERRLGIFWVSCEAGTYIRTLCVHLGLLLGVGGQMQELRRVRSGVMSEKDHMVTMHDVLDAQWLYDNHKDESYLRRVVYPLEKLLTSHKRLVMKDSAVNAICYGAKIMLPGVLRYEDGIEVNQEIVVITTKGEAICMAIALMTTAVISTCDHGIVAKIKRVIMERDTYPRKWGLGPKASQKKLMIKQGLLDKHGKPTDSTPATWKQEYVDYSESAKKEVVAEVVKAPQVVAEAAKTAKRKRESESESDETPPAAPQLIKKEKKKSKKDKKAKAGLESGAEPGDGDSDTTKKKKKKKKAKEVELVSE
# Sequence (Q9NPE3 whole entry partner): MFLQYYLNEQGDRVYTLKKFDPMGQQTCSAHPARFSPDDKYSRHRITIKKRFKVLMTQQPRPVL
# Sequence (Q9NX24 whole entry partner): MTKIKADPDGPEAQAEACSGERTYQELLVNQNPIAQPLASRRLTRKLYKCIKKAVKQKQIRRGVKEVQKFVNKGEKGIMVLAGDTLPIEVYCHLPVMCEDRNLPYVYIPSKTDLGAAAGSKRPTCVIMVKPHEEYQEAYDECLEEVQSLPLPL
# Sequence (Q9NY12 whole entry partner): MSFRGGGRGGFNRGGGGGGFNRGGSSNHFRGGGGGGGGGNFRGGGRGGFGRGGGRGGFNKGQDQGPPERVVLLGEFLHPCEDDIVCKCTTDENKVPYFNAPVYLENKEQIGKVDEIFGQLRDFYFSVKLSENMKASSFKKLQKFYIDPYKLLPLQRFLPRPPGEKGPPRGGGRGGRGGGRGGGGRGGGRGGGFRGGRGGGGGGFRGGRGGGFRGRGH
# ASSAY_REMARKS: Conventional telomerase assay (32P-dGTP as radiolabel substrate)
# Format: biochemical
# CONDITION_SUMMARY: 0.125 mM; read-out: % of Control
VALUE_KIND: remaining activity at 125 µM (%)
Return type: number; implicit unit %.

Example entries begin here.
>  <MOLECULE>
Nc1nc2c(ncn2[C@H]2C[C@H](O)[C@@H](COP(=O)(O)OP(=O)(O)CP(=O)(O)O)O2)c(=O)[nH]1 [NA014]

>  <VALUE_KIND>
remaining activity at 125 µM

>  <UNIT_SPEC>
%

>  <VALUE>
60

$$$$
>  <MOLECULE>
Nc1ncnc2c1ncn2[C@H]1CC[C@@H](COP(=O)(O)OP(=O)(O)OP(=O)(O)O)O1 [NA007, 2′,3′-Dideoxyadenosine-5′-Triphosphate]

>  <VALUE_KIND>
remaining activity at 125 µM

>  <UNIT_SPEC>
%

>  <VALUE>
118

$$$$
>  <MOLECULE>
Nc1nc2c(ncn2[C@H]2C[C@H](O)[C@@H](COP(O)(=S)OP(=O)(O)OP(=O)(O)O)O2)c(=O)[nH]1 (stereo partly shown) [NA013]

>  <VALUE_KIND>
remaining activity at 125 µM

>  <UNIT_SPEC>
%

>  <VALUE>
75

$$$$

Exercise: Checklist item: remaining activity at 125 µM tested on human 293 cell telomerase (Homo sapiens, UniProt O14746), entry Nc1ncnc2c1ncn2[C@H]1C[C@H](O)[C@@H](COP(O)(=S)OP(=O)(O)OP(=O)(O)O)O1 (stereo partly shown) [NA006] , value?
Key: 120
